Molecular target: NEIL1 (endonuclease VIII-like 1) (Homo sapiens, UniProt Q96FI4 2-390)
Sequence (Q96FI4 2-390): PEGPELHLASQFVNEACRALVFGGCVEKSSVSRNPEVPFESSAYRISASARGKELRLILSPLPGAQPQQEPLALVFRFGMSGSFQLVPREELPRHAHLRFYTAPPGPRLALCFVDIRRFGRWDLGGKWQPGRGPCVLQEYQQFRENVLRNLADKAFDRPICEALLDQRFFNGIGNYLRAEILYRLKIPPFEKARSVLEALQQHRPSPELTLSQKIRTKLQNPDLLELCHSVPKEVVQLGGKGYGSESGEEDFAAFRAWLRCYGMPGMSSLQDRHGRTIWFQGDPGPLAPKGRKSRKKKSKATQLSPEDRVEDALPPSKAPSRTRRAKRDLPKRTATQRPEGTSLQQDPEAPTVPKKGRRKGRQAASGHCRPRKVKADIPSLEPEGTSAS
Assay: MST; MST: 50 mM Tris-HCl pH 7.5, 50 mM KCl, 1 mM EDTA, 1 mM DTT, 7% glycerol, 25 C, 10 min, 0.5 uM DNA; authors call Kd values estimates only
Conditions: protein: recombinant; label: 5'-FAM on strand 2; blunt
Measured quantity: Kd (µM)
Write it as a number; the unit µM goes unstated.

Query :: Look up Kd: C/G (dsDNA) DNA 1: GCTCACGTACAGAGCTG DNA 2: CAGCTCTGTACGTGAGC
Result :: 17
